Origin of measurements: patent US20130197032A1

Test target: human 5-HT2A receptors (Homo sapiens, UniProt P28223)
Sequence (P28223 whole entry): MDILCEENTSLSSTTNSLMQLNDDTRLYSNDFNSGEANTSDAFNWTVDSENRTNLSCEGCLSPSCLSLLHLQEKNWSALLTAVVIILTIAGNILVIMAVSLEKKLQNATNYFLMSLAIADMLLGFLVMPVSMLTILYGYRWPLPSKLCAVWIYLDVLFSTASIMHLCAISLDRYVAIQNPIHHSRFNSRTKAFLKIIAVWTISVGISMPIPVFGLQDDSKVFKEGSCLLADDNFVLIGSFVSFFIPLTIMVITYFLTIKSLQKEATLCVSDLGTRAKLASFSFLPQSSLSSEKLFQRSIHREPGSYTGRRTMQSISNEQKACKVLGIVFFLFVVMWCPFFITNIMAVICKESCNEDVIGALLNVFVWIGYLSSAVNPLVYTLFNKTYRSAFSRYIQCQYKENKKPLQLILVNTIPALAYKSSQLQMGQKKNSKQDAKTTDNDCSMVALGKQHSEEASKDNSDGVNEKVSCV
Test description: Phosphatidyl inositol (PI) hydrolysis assay at 5-HT2A
Type: cell-based
Set-up: expressed in transfected cells
Measurement parameters: percent response of reference ligand 5-HT; mean ± SEM
Metric name: PI Hydrolysis Eff (%)
Give bare numbers, in %.

CCCN1CCC[C@@H](c2cccc(S(C)(=O)=O)c2)C1 [(−)-OSU6162] : 65
CCN(CC)C(=O)N[C@H]1C[C@@H]2c3cccc4[nH]cc(c34)C[C@H]2N(C)C1 [(+)-Terguride] : 52
NCCc1c[nH]c2ccc(C(N)=O)cc12 [5-CT, 5-carboxamidotryptamine, reference compound] : 92

Turning now to a further record.
Q: Can you share its PI Hydrolysis Eff (%)? I mean this compound: CCCN1CCC[C@H](c2cccc(S(C)(=O)=O)c2)C1 [(+)-OSU6162]
Result: 82

====

Test target: human 5-HT2C(vgv) receptor (Homo sapiens, UniProt P28335, I156V/I160V/N158G)
Sequence (P28335 33-458 I156V/N158G/I160V): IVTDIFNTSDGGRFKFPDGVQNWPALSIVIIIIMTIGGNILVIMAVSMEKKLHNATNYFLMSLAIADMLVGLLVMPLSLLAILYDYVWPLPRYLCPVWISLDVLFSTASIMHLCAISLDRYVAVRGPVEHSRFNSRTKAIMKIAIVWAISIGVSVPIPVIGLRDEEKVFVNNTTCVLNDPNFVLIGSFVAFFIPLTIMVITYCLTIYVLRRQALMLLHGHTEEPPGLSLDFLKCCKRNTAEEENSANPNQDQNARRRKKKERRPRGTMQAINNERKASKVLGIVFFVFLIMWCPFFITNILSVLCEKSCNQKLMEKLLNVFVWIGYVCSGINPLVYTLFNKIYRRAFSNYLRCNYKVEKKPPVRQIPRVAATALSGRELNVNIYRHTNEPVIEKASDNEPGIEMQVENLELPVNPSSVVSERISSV
Test description: R-SAT assay 5-HT2C
Measurement parameters: Table 3, 5-HT2C; negative logarithm of EC50 in molar
Metric name: pEC50
Numbers only, as −log10 of the molar value.

CCCN1CCC[C@H](c2cccc(S(C)(=O)=O)c2)C1 [(+)-OSU6162] : 4.50

Please turn your attention to the following entry.
Q: Entry under review: CCCN1CCC[C@@H](c2cccc(S(C)(=O)=O)c2)C1 [(−)-OSU6162] . Reported pEC50?
Result: 5.10

====

Test target: UniProt:P50406
Sequence (P50406 whole entry): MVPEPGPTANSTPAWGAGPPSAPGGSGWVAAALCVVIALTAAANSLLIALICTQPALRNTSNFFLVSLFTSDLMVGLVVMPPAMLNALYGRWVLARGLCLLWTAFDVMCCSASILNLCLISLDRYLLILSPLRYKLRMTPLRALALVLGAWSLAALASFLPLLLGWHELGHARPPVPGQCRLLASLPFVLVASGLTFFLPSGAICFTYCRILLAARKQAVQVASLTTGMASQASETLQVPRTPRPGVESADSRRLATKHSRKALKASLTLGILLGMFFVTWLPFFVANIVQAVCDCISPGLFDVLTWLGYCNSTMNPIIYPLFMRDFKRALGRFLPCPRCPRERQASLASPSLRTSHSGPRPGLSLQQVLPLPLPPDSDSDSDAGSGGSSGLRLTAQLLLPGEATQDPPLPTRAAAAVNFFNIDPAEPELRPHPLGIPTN
Test description: R-SAT assay 5-HT6
Format: cell-based
Metric name: EC50 (nM)
One number for each entry, in nM.

Q: Name the recorded EC50 for NCCc1c[nH]c2ccc(C(N)=O)cc12 [5-CT, 5-carboxamidotryptamine, reference compound] .
Result: 251

====

Test target: UniProt P28223
Test description: R-SAT functional assay at 5-HT2A
Type: cell-based
Set-up: expressed in transfected cells; host or cells: NIH-3T3
Measurement parameters: Table 1; negative logarithm of EC50 in molar (M); NIH3T3 cells; mean ± SEM; read-out: R-SAT pEC50 (converted)
Metric name: EC50 (M)
One number for each entry, in M.

Worked examples, 2 compounds total:
CCCN1CCCC(c2cccc(O)c2)C1 (single isomer, unassigned; (-)) [(−)-3-PPP] : 3.98e-06
CCCN1CCC[C@@H](c2cccc(S(C)(=O)=O)c2)C1 [(−)-OSU6162] : 6.31e-07

Now look at this one.
Q: EC50 for CCCN1CCC[C@H](c2cccc(S(C)(=O)=O)c2)C1 [(+)-OSU6162] ?
Result: 1.58e-06
